System: H1944
Experiment: MTT cell proliferation assay
Type: cell-based
Test Parameters: H1944, 72 h
Recorded Metric: IC50 (µM)

>  <Compound Structure>
O=C(c1cccc(Cc2n[nH]c(=O)c3ccccc23)c1)N1CCN([N+]([O-])=NOc2ccc([N+](=O)[O-])cc2[N+](=O)[O-])CC1

>  <Recorded Metric>
IC50

>  <Numeric Readout>
14

$$$$

----------
Tested on: H1355
Experiment: MTT cell proliferation assay
Type: cell-based
Test Parameters: Homo sapiens, NCI-H1355, H1355, 72 h
pIC50: −log10 of the molar value.

>  <Compound>
O=C(c1cc(Cc2n[nH]c(=O)c3ccccc23)ccc1F)N1CCN([N+]([O-])=NOc2ccc([N+](=O)[O-])cc2[N+](=O)[O-])CC1 [JS-60-178]

>  <Study System>
H1355

>  <pIC50>
5.09

$$$$
